Experiment: chemical genetic growth profiling, strain panel (AID 1159580);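 also: tested at 20 µM; growth read once vehicle control cultures reached saturation at 30 °C; 1 = growth at the plate median or of vehicle wells; lower values mean less growth of the strain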
Settings: S. cerevisiae deletion strains, growth OD, locus YLR342W, strain FKS1 (second series), active compounds read low
Screen size: about 5,500 compounds; about 2,000 (36%) were called active. About 18% were inconclusive and are not listed. The list shows a part of the results.
measure: normalized growth

// query I have this molecule here, CC(C)COCC(CN(Cc1ccccc1)c1ccccc1)N1CCCC1 (centres undefined) , and I need its recorded normalized growth.
// result 0.707 (active)

// query Entry to check: `NC[C@@H]1CC[C@@H](N)[C@@H](O[C@H]2[C@H](O)[C@@H](O[C@H]3O[C@H](CO)[C@@H](O)[C@H](N)[C@H]3O)[C@H](N)C[C@@H]2N)O1`
// result 1.01 (inactive)

// query # iterate: `CC[C@H](C)C(=O)O[C@H]1C[C@@H](C)C=C2C=C[C@H](C)[C@H](CC[C@@H]3C[C@@H](O)CC(=O)O3)[C@H]21`
// result 0.968 (inactive)

// query Next up: `CCN(CC)C(=O)c1cccc(C)c1`
// result 0.987 (inactive)

// query For `CCC(C)(C)C(=O)O[C@H]1C[C@@H](C)C=C2C=C[C@H](C)[C@H](CC[C@@H]3C[C@@H](O)CC(=O)O3)[C@H]21` then?
// result 1.01 (inactive)

// query What do we get for `COc1ccc(CCN2CCC(Nc3nc4ccccc4n3Cc3ccc(F)cc3)CC2)cc1` ?
// result 0.945 (inactive)

// query Continue with `CC[N+](CC)(CC)CCOc1cccc(OCC[N+](CC)(CC)CC)c1OCC[N+](CC)(CC)CC`
// result 0.996 (inactive)

// query Param item: `Cn1c(=O)c2[nH]cnc2n(C)c1=O`
// result 0.99 (inactive)

// query How about `COC(=O)C1=CCCN(C)C1` ?
// result 1.01 (inactive)

// query Subsequent entry: `CN1C(C(=O)Nc2ccccn2)=C(O)c2ccccc2S1(=O)=O`
// result 0.94 (inactive)

// query Also need CCCCN1CCCCC1C(=O)Nc1c(C)cccc1C (centres undefined) , thanks.
// result 1.03 (inactive)

// query Try this molecule too: CC(C)NCC(O)c1cc(O)cc(O)c1 (centres undefined)
// result 1.01 (inactive)

// query Another molecule: CC1(C)C2(Cl)C(Cl)C(Cl)C(Cl)(C(Cl)Cl)C1(Cl)C2Cl (centres undefined)
// result 0.893 (inactive)

// query Further, for C[C@@H]1C(=O)OC2[C@H](O)C34[C@@H]5OC(=O)[C@@]3(O[C@@H]3OC(=O)[C@H](O)[C@@]34[C@H](C(C)(C)C)[C@H]5O)[C@]21O (some centres undefined) ?
// result 1.01 (inactive)

---

Assay: chemical genetic growth profiling, strain panel (AID 1159580)
Settings: S. cerevisiae deletion strains, growth OD, locus YNL197C, strain WHI3, active compounds read low
About 2,000 (36%) of roughly 5,500 compounds were called active. Roughly 18% stayed inconclusive and do not appear here. Some of the results follow.
Give normalized growth for every item shown.
API doc: respond with a numeric literal and nothing else, no unit.

// query Request the reported normalized growth associated with `COC(=O)[C@@H](N)Cc1ccc(O)c(O)c1`
// result 0.984

// query Do the same for `CN1CCc2cccc(Cl)c2CC1` please
// result 1.01

// query Then what about the compound `NC(N)=NCCC[C@H](N)C(=O)O` ?
// result 0.989

// query Next up: NC(CO)C(=O)NNCc1ccc(O)c(O)c1O (stereo not given)
// result 0.935

// query And `O=c1[nH]oc2c1CCNC2` ?
// result 1.05

---

Assay: chemical genetic growth profiling, strain panel (AID 1159580);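 also: tested at 20 µM; growth read once vehicle control cultures reached saturation at 30 °C; 1 = growth at the plate median or of vehicle wells; lower values mean less growth of the strain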
Settings: S. cerevisiae deletion strains, growth OD, locus YMR129W, active compounds read low
About 2,000 (36%) of roughly 5,500 compounds were called active. Inconclusive results (about 18%) are left out. The list shows a part of the results.
measure: normalized growth
Field format: numeric only.

// query Which normalized growth value is on record for CC1OC1P(=O)(O)O (centres undefined) ?
// result 1.01

// query Next record, please: `CCCCCCOc1ccccc1C(N)=O`
// result 0.945

// query Thanks! And CC1=CC2C(CC1=O)C(C)=CCC2C(C)C (centres undefined) ?
// result 1.03

// query Same thing, different compound: C=CC(N)CCC(=O)O (centres undefined)
// result 0.988

// query Another: `Oc1ccc(Cl)cc1Cc1cc(Cl)ccc1O`
// result 0.0627

// query Another: `Clc1cccc(Cl)c1NC1=NCCN1`
// result 0.999

// query How about this compound: `COC(=O)C[C@H]1C(C)(C)C(=O)[C@@H]2CC3=C(CC[C@]4(C)C3=CC(=O)O[C@H]4c3ccoc3)[C@@]1(C)C2=O`
// result 0.988

// query Same thing, different compound: `O=c1[nH]oc2c1CCNC2`
// result 0.996

// query Try `O=C(O)CN1C(=O)c2cccc3cccc(c23)C1=O` next.
// result 0.996

---

Assay: chemical genetic growth profiling, strain panel (AID 1159580);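 also: tested at 20 µM; growth read once vehicle control cultures reached saturation at 30 °C; 1 = growth at the plate median or of vehicle wells; lower values mean less growth of the strain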
Conditions: S. cerevisiae deletion strains, growth OD, locus YDR477W, strain SNF1
Hit rate of the full screen: of about 5,500 compounds, about 2,000 (36%) were called active. Another 18% or so got no clear call; they are omitted. Cut-off read from the data, not from the text of the source: active = normalized growth mostly below about 0.91 (no sharp cut-off); inconclusive = no clear call, values can overlap the other calls; inactive = mostly above about 0.92. This is one part of the list.
Outcome field: choose from label 1 = active, label 0 = inactive

// query Any idea what this test logged for `Cc1ccc(NS(=O)(=O)c2ccc(-c3csc(C)n3)s2)c(C)c1` ?
// result label 0

// query Subsequent entry: `O=C(Nc1ccc(Cl)cc1)OCCSc1nc2ccccc2s1`
// result label 0

// query And then `Cc1onc(-c2c(F)cccc2Cl)c1C(=O)ON=C1C2CC3CC(C2)CC1C3` , what is it?
// result label 0

// query Next record, please: `CC(C)(C)c1ccc(C(=O)NNc2c(Cl)cccc2Cl)cc1`
// result label 0

// query Also need `ClC1=C(C=Nc2ccc(Cl)cc2)CSc2ccc(Cl)cc21` , thanks.
// result label 0

// query Also, `S=c1[nH]nc(Nc2ccc(I)cc2)s1` please.
// result label 1

// query And the next one, `CCCCCCCCCCCC(=O)NOC(=O)c1c(-c2c(Cl)cccc2Cl)noc1C` ?
// result label 0

// query Next compound up: `CC1(C)OC(=O)C(=Cc2cccn2-c2ccc(C(F)(F)F)cc2)C(=O)O1`
// result label 0

// query Try this compound too: `CC(=O)Nc1ccc(S(=O)(=O)Nc2ccccc2Oc2ccc(Cl)cc2Cl)cc1`
// result label 0

// query Input `Cc1ccc(NNC(=O)c2c(C)noc2C)cc1Cl`
// result label 0

// query Also `OC(=Cc1nc2ccccc2nc1C=C(O)c1ccc(Cl)cc1)c1ccc(Cl)cc1` ?
// result label 0

// query Quick one: `O=c1c2ccccc2[nH]c(=S)n1-c1cccc(C(F)(F)F)c1`
// result label 1

// query Would you kindly repeat that for `Cc1ccc(NC(=O)c2ccccc2N=Cc2cc(Cl)cc(Cl)c2O)c(N=Cc2cc(Cl)cc(Cl)c2O)c1` ?
// result label 1

// query Next compound up: `CC(C)(C)c1ccc(C(=O)Nc2ccc(C(F)(F)F)cc2)s1`
// result label 0

// query # iterate: `Cc1onc(-c2c(Cl)cccc2Cl)c1C(=O)NNc1c(Cl)cccc1Cl`
// result label 0

---

Experiment: chemical genetic growth profiling, strain panel (AID 1159580);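 also: tested at 20 µM; growth read once vehicle control cultures reached saturation at 30 °C; 1 = growth at the plate median or of vehicle wells; lower values mean less growth of the strain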
Settings: S. cerevisiae deletion strains, growth OD, locus YLR258W, strain gsy2, active compounds read low
The campaign covered roughly 5,500 compounds. About 2,000 (36%) were called active. About 18% were inconclusive and are not listed. Some of the results follow.
measure: normalized growth

// query Need normalized growth, item `CC1(C)O[C@H]2[C@H](O)C[C@](O)(C(N)=O)C[C@H]2O1`
// result 1.01 (inactive)

// query Similarly, `COc1ccc([C@H]2Oc3cc(OC)cc(OC)c3C[C@H]2O)cc1` ?
// result 0.995 (inactive)

// query Do the same for CC(C)C(C)/C=C/C(C)[C@H]1CCC2C3=CCC4CC(=O)CC[C@]4(C)C3CC[C@@]21C (stereo partly specified) please
// result 1 (inactive)

// query How about this compound: `C[C@H]1CC[C@@H](C(C)(C)O)CC2=C1CC[C@@H]2C`
// result 0.971 (inactive)

// query Another compound: COc1ccc2c(c1OC)C(=O)OC2[C@H]1c2c(cc3c(c2OC)OCO3)CCN1C (stereo partly specified)
// result 1.02 (inactive)

// query Similarly, COC(=O)[C@@H]1OC(=O)[C@H]2O[C@@]23[C@@]1(C)CCC1[C@@]2(C)CCC(=O)C(C)(C)C2C[C@@H](OC(C)=O)[C@]13C (stereo partly specified) ?
// result 1 (inactive)

// query Then what about the compound C=C1CCC2C(CC2(C)C)C(=C)CC/C1=N\O (stereo unspecified) ?
// result 1.01 (inactive)

// query Entry `O=c1cc[nH]c(=S)[nH]1` please
// result 0.989 (inactive)

// query Same question for `COc1cc(-c2coc3cc(OC)c(OC)c(OC)c3c2=O)cc(OC)c1OC` please.
// result 0.989 (inactive)

// query Proceed to CC(C)(Oc1ccc(C2CC2(Cl)Cl)cc1)C(=O)O (stereo unspecified)
// result 1 (inactive)

// query Now this one: `CCNC(=O)CC[C@H](N)C(=O)O`
// result 0.994 (inactive)

// query // same read-out, input: CC(=O)OC1CCC2(C)C(=CC=C3C2CCC2(C)C3CCC2C(C)/C=C/C(C)C(C)C)C1(C)C (stereo unspecified)
// result 1 (inactive)

// query Note, next up: `N[C@@H](CC(=O)N1CCn2c(nnc2C(F)(F)F)C1)Cc1cc(F)c(F)cc1F`
// result 0.979 (inactive)

// query Same again, this time with Nc1ccn(C2O[C@H](CO)[C@@H](O)[C@@H]2O)c(=O)n1 (stereo partly specified)
// result 1.02 (inactive)

// query // next record CC[C@H](C)C(=O)O[C@H]1CCC=C2C=C[C@H](C)C(CCC3C[C@@H](O)CC(=O)O3)[C@H]21 (stereo partly specified)
// result 1.01 (inactive)

// query Would you kindly repeat that for `CC[N+](CC)(CC)CCOc1cccc(OCC[N+](CC)(CC)CC)c1OCC[N+](CC)(CC)CC` ?
// result 1.01 (inactive)
